Origin of measurements: patent US20220389013A1

protocol: Pharmacokinetic (PK) experiment in rats by gavage
Type: in vivo
conditions: rat, plasma, po, male SD rats, 20 mg/kg
value kind: Tmax (h)
Only the number, expressed in h, is required.

Consider the reported Tmax for these compounds:
>>> value_measured("C=CC(=O)N1C[C@H](C)N(c2nc(=O)n(-c3c(C)ccnc3C(C)C)c3nc(-c4c(F)ccc5ccoc45)c(F)cc23)C[C@H]1C [Compound 89]")
1
>>> value_measured("C=CC(=O)N1C[C@H](C)N(c2nc(=O)n(-c3c(C)ccnc3C(C)C)c3nc(-c4c(F)ccc5ccoc45)c(F)cc23)C[C@H]1C (single isomer, unassigned) [Compound 89-1]")
1
>>> value_measured("C=CC(=O)N1CCN(c2nc(=O)n(-c3c(C)ccnc3C(C)C)c3nc(-c4c(F)ccc5ccoc45)c(Cl)cc23)[C@@H](C)C1 [Compound 73]")
1
>>> value_measured("C=CC(=O)N1C[C@H](C)N(c2nc(=O)n(-c3c(C)ccnc3C(C)C)c3nc(-c4c(F)ccc5ccoc45)c(Cl)cc23)C[C@H]1C [Compound 90]")
1
>>> value_measured("C=CC(=O)N1CCN(c2nc(=O)n(-c3c(C)ccnc3C(C)C)c3nc(-c4c(F)c(F)cc5ccoc45)c(Cl)cc23)[C@@H](C)C1 (single isomer, unassigned) [Compound 103-1]")
1

Kindly review the next compound as well.
# Tmax of C=CC(=O)N1C[C@H](C)N(c2nc(=O)n(-c3c(C)ccnc3C(C)C)c3nc(-c4c(F)c(F)cc5ccoc45)c(Cl)cc23)C[C@H]1C (single isomer, unassigned) [Compound 104-1] = 1
